Test system: COLO 205 colon
Assay: NCI tumour cell line growth inhibition, 48 h
measured_metric: TGI (µM)

compound_smiles=Cc1c[n+](Cc2ccc3ccccc3c2)cn1Cc1ccc2ccccc2c1 lt_gt_eq== number=2.62
compound_smiles=COc1cc(/C=C2\C[C@H]3[C@@H]4CC=C5C[C@@H](O)CC[C@]5(C)[C@H]4CC[C@]3(C)C2=O)cc(OC)c1OC lt_gt_eq== number=54.9
compound_smiles=COC(=O)C1=C(C)NC(C)=C(C(=O)OC)C1c1ccc(/[N+]([O-])=C/c2ccccc2)cc1 lt_gt_eq== number=35.1
compound_smiles=COc1cc2cn3c4ccc(O)cc4[nH]c(=O)c3c2cc1OC lt_gt_eq== number=0.429
compound_smiles=Cc1cn2c(/C=C3/C(=O)Nc4ccccc43)c(-c3ccc(Cl)cc3)nc2s1 lt_gt_eq== number=22.2
compound_smiles=COc1cc2c(cc1OCc1ccccc1)CNCC2 lt_gt_eq=> number=100
compound_smiles=CNC(=S)N/N=C(C)\C(=N/NC(=S)NC)c1ccccc1 lt_gt_eq=> number=100
compound_smiles=C=CCNC1=C2C[C@@H](C)C[C@@H](OC)[C@@H](OC(=O)CCCN)[C@H](C)/C=C(\C)[C@@H](OC(N)=O)[C@H](OC)/C=C\C=C(/C)C(=O)NC(=CC1=O)C2=O lt_gt_eq== number=13.6
compound_smiles=CC(=O)c1csc2c1C(=O)c1scc(C(C)=O)c1C2=O lt_gt_eq== number=3.63
